Tested on: endogenous TFE3
assay.procedure: TFE3 nuclear translocation, immunocytochemistry high-content imaging
Type: cell-based
conditions.used: PKIS2 primary screening
measurement.name: TFE3 % (%)
Express your answer in %, writing the number without its unit.

Solved entries:
Task: What does the data say about its TFE3 %? Entry: Cl.c1ccc(-c2ccc3c(Nc4ccc5[nH]ccc5c4)ccnc3c2)nc1 [UNC10225345A]
Result: 38.32

Task: Which measured TFE3 % value corresponds to OCCCNc1nccc(-c2c(-c3cccc(C(F)(F)F)c3)nn3cc(C(F)(F)F)ccc23)n1 [UNC10225352A] ?
Result: 11.93

Task: Recorded TFE3 % for CN(c1ccc2c(c1)nc(NCc1ccc(F)cc1)n2C)c1ccnc(Nc2ccc(CS(C)(=O)=O)cc2)n1 [GW813244] , please?
Result: 13.77

We now examine a further compound.
Task: Entry Clc1cc(Cl)cc(Nc2ccnc(Nc3cc(Cl)cc(Cl)c3)n2)c1 [GSK175726] : reported TFE3 % = ?
Result: 10.08

---

Test system: SH-SY5Y cells
assay.procedure: Nuclear count from microscopy images (cellular growth and toxicity); note: reference of the scale not given here
conditions.used: PKIS2 primary screening
measurement.name: Nuclear Count
// keep it numeric: no unit symbol after the value

Task: Data request, read-out Nuclear Count, for O=C(Nc1ccccc1F)NC1CCN(c2ccnc(Nc3ccc(F)cc3)n2)CC1 [GSK1379800]
Result: 118.12

Task: Name the recorded Nuclear Count for Fc1ccc(-c2nn3c(OCC(F)(F)F)cccc3c2-c2ccncc2)cc1 [UNC10225249A] .
Result: 84.48

Task: What does the record list as Nuclear Count for COC(=O)c1cccc(NC(=O)NC2CCN(c3ccnc(Nc4ccc(F)cc4)n3)C2)c1 (stereo not shown) [GSK1379725] ?
Result: 95.32

Task: Look up Nuclear Count: COc1ccc(Nc2nccc(N3CCC(NC(=O)Nc4cc(C)ccc4C)C3)n2)cc1 (stereo not shown) [GSK1379741]
Result: 115.70

Task: What value of measured Nuclear Count is listed for CCS(=O)(=O)c1ccc(OC)c(Nc2ncc(-c3ccc(F)cc3)o2)c1 [GW591947] ?
Result: 114.66

Further cases:
Task: What does the record list as Nuclear Count for Cn1cc(-c2ccc3c(c2)CCN3C(=O)Cc2cccc(F)c2)c2c(N)ncnc21 [UNC10225297A] ?
Result: 104.97

Task: Please look up its Nuclear Count: c1ccc(-c2cnc3nccnn23)cc1 [UNC10225020A]
Result: 110.84

Task: # Nuclear Count lookup, item Cl.Cl.NC[C@H](CC1CCCCC1)NC(=O)c1cc(Br)c(-c2ccnc3[nH]ccc23)s1 [UNC10225276A]
Result: 101.96

---

Test system: SH-SY5Y cells
assay.procedure: Nuclear count from microscopy images (cellular growth and toxicity); note: reference of the scale not given here
conditions.used: PKIS2 primary screening
hey, just use label 1 if measured Nuclear Count is less than 100, otherwise label 0

Task: Hi there! Is Nuclear Count for Cc1c2ccc(N(C)c3ccnc(Nc4cccc(S(N)(=O)=O)c4)n3)cc2nn1Cc1ccccc1 below 100, do you know?
Result: label 0

Task: is_below(Nuclear Count, 100) for Cc1ccc(Nc2ccnc(Nc3ccc4c(c3)CS(=O)(=O)C4)n2)cc1O ?
Result: label 1

Task: Record COc1ccc(Nc2nccc(-c3ccc(NC(=O)c4cc5cc(F)ccc5[nH]4)cc3)n2)cc1 : is its Nuclear Count strictly below 100?
Result: label 0

Task: Determine whether this compound shows Nuclear Count lower than 100 (ties excluded): Cc1cc(N2Cc3ccccc3C2)nc(Nc2ccc(S(=O)(=O)N3CCOCC3)cc2)n1
Result: label 0

Task: Does this compound meet the criterion Nuclear Count < 100? c1ccc(-c2n[nH]cc2-c2ccnc3ccccc23)nc1 [UNC10225289A]
Result: label 0

Task: Is Nuclear Count of Cl.Cl.Cl.Fc1ccc(-c2ncn(C3CCNCC3)c2-c2ccnc(Nc3ccccc3)n2)cc1 [UNC10225420B] strictly below 100?
Result: label 1

Task: I'd appreciate it if you could check whether C[C@@H](Oc1cc(-n2cnc3ccc(-c4ccncc4)cc32)sc1C(N)=O)c1ccccc1Cl [UNC10225348A] has Nuclear Count smaller than 100.
Result: label 1

Others:
Task: Find out if reported Nuclear Count for c1ccc(Oc2ccc(Nc3ccnc4cc(-c5ccc(CN6CCCCC6)o5)ccc34)cc2)nc1 [UNC10225094A] is less than 100
Result: label 0
